- Test description: clinical
- Measurement context: human, plasma, intravenous, Weight-adjusted Vd Mean, Dose Level 1, LD 0.25/CD 0.2 μg/kg/hr; full evaluable population
Measure name: Vd (L/kg)

1. Cc1cccc([C@H](C)c2cnc[nH]2)c1C [dexmedetomidine]: 2.17

###

- Test description: clinical
- Measurement context: human, plasma, intravenous, CL, Geo. Mean of individual Bayesian estimates, 12 months-<24 months (n = 13)
Measure name: clearance

1. Cc1cccc([C@H](C)c2cnc[nH]2)c1C [dexmedetomidine]: 179 mL/min

###

- Test description: clinical
- Measurement context: human, in vivo, Cl Median
Measure name: clearance

1. Cc1cccc([C@H](C)c2cnc[nH]2)c1C [dexmedetomidine]: 162 mL/min
